B1: TPR 5TU (parent)
chain: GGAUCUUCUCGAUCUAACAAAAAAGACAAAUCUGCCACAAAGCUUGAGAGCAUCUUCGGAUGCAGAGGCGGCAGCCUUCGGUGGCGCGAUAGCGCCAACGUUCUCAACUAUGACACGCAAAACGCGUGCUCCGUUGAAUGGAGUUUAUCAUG

Variants of: B1
assay: polymerase ribozyme fitness, log enrichment relative to wild type (log ratio); higher = more active; in vitro selection for triplet polymerase activity
Fewer inactive variants are shown than the library holds.
Examples of variants with documented polymerase ribozyme fitness (log ratio) follow.

variant-notation: C43U C93G U109G
polymerase ribozyme fitness (log ratio): ≤ -4.2
//
variant-notation: C35U C87U A107G G126A G136U G140U
polymerase ribozyme fitness (log ratio): ≤ -4.2
//
variant-notation: C35U U77A C149A
polymerase ribozyme fitness (log ratio): ≤ -4.2
//
variant-notation: U7A A24C A47C U109C A120U
polymerase ribozyme fitness (log ratio): ≤ -4.2

Now take the following variant into account.
polymerase ribozyme fitness (log ratio) for A29C U44A G59U C72U C131G is ≤ -4.2
